# TEST_SUMMARY: Aqueous solubility of the compound in 6.8 pH buffer
# Format: physicochemical
# EXPERIMENTAL_CONTEXT: pH 6.8 buffer
PROPERTY_NAME: solubility (µM)
API: value field is a number in µM; no unit string.

[ask] Write down solubility measured for item `Cn1c(N2CCC(C)(CN)CC2)nc(N)c(Sc2cccc(Cl)c2Cl)c1=O`
[reply] 250

[ask] Write down solubility measured for item `C[C@@H]1OCC2(CCN(c3nc(N)c(Sc4cccnc4C(F)(F)F)c(=O)n3C)CC2)[C@@H]1N`
[reply] 980

---

# TEST_SUMMARY: Permeability in human Caco2 cells
# Type: ADME, cell-based
# EXPERIMENTAL_CONTEXT: Caco-2, read-out: permeability
PROPERTY_NAME: Papp (×10⁻⁶ cm/s)
API: value field is a number in ×10⁻⁶ cm/s; no unit string.

[ask] Write down Papp measured for item `Cn1c(N2CCC(C)(CN)CC2)nc(N)c(Sc2cccc(Cl)c2Cl)c1=O`
[reply] 2.5

Where these numbers come from: ChEMBL document CHEMBL4411331
